These entries and their values trace back to patent US20190177416A1.

- assayed_target: T1, PD-L2 (coated antigenic protein) (UniProt Q9BQ51 20-220, limits assumed)
- T1 sequence (looked up): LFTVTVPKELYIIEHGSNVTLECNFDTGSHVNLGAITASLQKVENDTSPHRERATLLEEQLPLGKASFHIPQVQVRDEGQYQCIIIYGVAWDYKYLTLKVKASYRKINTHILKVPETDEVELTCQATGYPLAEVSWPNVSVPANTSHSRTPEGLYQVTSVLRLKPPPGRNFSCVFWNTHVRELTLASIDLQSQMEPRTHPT
- assay_info: ELISA, purified nanobody 10 ug/mL on coated PD-L2, anti-HA detection
assay_metric: ELISA absorbance (A405 nm)
Use A405 nm as the unit, but write only the number.

I'd like to know its ELISA absorbance (A405 nm). The binder in question is SEQ ID NO 4 (VHH, pMECS-expressed; also called anti-PD-L1 nanobody No. 4; VHH numbered 4) VHH: QVQLQESGGGSVQTGGSLRLSCAASPSIYSANYMAWFSQAPGKGREGVAAVYIGDGRPYYADSVKGRFTISLDSAKNTVYLQMNSLKPEDTAMYYCAAAPGPLGHNYWYTSANYDYWGQGTQVTVSS 0.137

Next record, please: SEQ ID NO 12 (VHH, pMECS-expressed; also called anti-PD-L1 nanobody No. 12; VHH numbered 12) VHH: QVQLQESGGGSVQAGGSLRLSCAASGYTRSSHCMVWFRQAPGKEREGVALIYTGSGSTYYADSVKGRFTISQDNAKKTLYLQMNSLKPEDTAMYYCAAGTSSSSCPGLLGPPRYYNWGQGTQVTVSS 0.125

Next record, please: SEQ ID NO 2 (VHH, pMECS-expressed; also called anti-PD-L1 nanobody No. 2; VHH numbered 2) VHH: QVQLQESGGGSVQAGGSLRLSCAVSRYSASNNVIKWMGWFRQAPGKEREGVAALYTSGGNTYYADSVKGRFTISRDYSENTVSLQMNNLKPEDTGMYYCATTVGTVLAGPLSARKYNYWGQGTQVTVSS 0.114

Next record, please: SEQ ID NO 8 (VHH, pMECS-expressed; also called anti-PD-L1 nanobody No. 8; VHH numbered 8) VHH: QVQLQESGGDSVQAGGSLRLACKVPGFTSNTCAMAWFRQAPGKEREFVSSISTGGTTGYAESAKGRFTLSKDEAKDTVYLQMNSLKPEDTAMYFCKSYACRTCIGRYCRTAPDAWGQGTQVTVSS 0.133
